- EXPERIMENTAL_SYSTEM: Peroxisome proliferator-activated receptor delta (Homo sapiens) (UniProt Q03181)
- Sequence (Q03181 whole entry, looked up): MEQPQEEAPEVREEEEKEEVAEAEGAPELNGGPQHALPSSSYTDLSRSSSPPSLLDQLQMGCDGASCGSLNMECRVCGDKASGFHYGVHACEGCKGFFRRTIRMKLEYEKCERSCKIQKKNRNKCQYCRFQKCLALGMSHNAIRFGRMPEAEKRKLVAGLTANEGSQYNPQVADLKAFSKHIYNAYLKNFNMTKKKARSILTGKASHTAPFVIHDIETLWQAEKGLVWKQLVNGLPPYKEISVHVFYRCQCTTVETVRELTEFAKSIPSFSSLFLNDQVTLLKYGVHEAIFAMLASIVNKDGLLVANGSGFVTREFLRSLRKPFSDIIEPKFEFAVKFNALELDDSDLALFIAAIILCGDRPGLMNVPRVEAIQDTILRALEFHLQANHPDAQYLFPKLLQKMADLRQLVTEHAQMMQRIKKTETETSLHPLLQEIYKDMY
- PROTOCOL_DETAILS: qHTS assay to identify small molecule antagonists of the peroxisome proliferator-activated receptor delta (PPARd) signaling pathway (AID 743215);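 note: cells stimulated with agonist L165041 at 300 nM final during compound exposure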
- MEASUREMENT_PARAMETERS: HEK293H PPARd-UAS-bla, beta-lactamase FRET ratio, antagonist, 17 h; series mostly up to 62 µM
Inconclusive results are not listed. Active and inactive are the calls of the source. Calls come from the whole dose curve; as a rule, active = well fitted inhibition curve with a large enough effect in the signal ratio in the repeat runs (not every such curve was filed as active); inconclusive = weak or mixed curves, or effect the other way; inactive = no such curve, though single readings can be large or run the other way; the % refers to the signal ratio.
QUANTITY: ratio activity, negative = inhibition

O=C(Nc1ccccc1)Nc1cnns1 | inactive
CC(C)(OO)c1ccccc1 | inactive
COC(=O)C(Cl)C(=O)OC | inactive
N#Cc1cc(I)c(O)c(I)c1 | inactive
CC(=O)[C@H]1CC[C@H]2[C@@H]3CC[C@H]4C[C@](C)(O)CC[C@]4(C)[C@H]3CC[C@]12C | inactive
O=C1C(=O)c2cccc3cccc1c23 | inactive
CCOc1ccc(C(C)(C)COCc2cccc(Oc3ccccc3)c2)cc1 | inactive
COP(=S)(OC)Oc1cc(Cl)c(I)cc1Cl | inactive
O=C(NC(=O)c1c(F)cccc1F)Nc1cc(Cl)c(Oc2ncc(C(F)(F)F)cc2Cl)c(Cl)c1 | inactive
CCCC(Cn1cncn1)c1ccc(Cl)cc1Cl (configuration not stated) | inactive
ClCCCCBr | inactive
Clc1cc(C(Cl)(Cl)Cl)cnc1Cl | inactive
Cc1cc(=O)[nH]o1 | inactive
O=C(O)c1ccccc1C(=O)Nc1cccc2ccccc12 | inactive
Cc1ccc(N)cc1C | inactive
Nc1nc(=S)[nH][nH]1 | inactive
CCCCCCCCCCOC(=O)c1ccccc1C(=O)OCCCCCCCCCC | inactive
CO[C@@H]1[C@H](OC(=O)NC(=O)CCl)CC[C@]2(CO2)[C@H]1[C@@]1(C)O[C@@H]1CC=C(C)C | inactive
O=[N+]([O-])c1ccccc1CCl | inactive
ClCc1ccccc1 | inactive
Cc1ccccc1C(=O)Nc1cccc(OC(C)C)c1 | inactive
Cc1c(F)c(F)c(COC(=O)C2C(/C=C(\Cl)C(F)(F)F)C2(C)C)c(F)c1F (configuration not stated) | inactive
CCOC(=O)CBr | inactive
N#CCc1ccccc1 | inactive
O=S1(=O)OC(c2cc(Br)c(O)c(Br)c2)(c2cc(Br)c(O)c(Br)c2)c2ccccc21 | inactive
CC(O)(CS(=O)(=O)c1ccc(F)cc1)C(=O)Nc1ccc(C#N)c(C(F)(F)F)c1 (configuration not stated) | inactive
COc1c(C(C)(C)C)cc([N+](=O)[O-])c(C)c1[N+](=O)[O-] | inactive
